- SUBJECT_OF_TEST: SARM1 SAM-TIR (Homo sapiens)
- Construct: a fragment of the SARM1 molecule encompassing the SAM and TIR domains; made in house; host or cells: NRK1-HEK293T cells, transiently transfected; the cleared, unpurified lysate was used as the enzyme
- TEST: biochemical;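 also: inhibition of SARM1 SAM-TIR NADase activity, i.e. NAD+ cleavage, using lysate of NRK1-HEK293T cells overexpressing the SAM-TIR fragment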
- EXPERIMENTAL_CONDITIONS: SAM-TIR lysate 5 μg/mL, 2 h pre-incubation, 5 μM NAD+, RapidFire MS of NAD+ and ADPR; read-out: SARM1 IC50
pIC50: −log10 of the molar value.
Catalogue of pIC50 readings, one per entry.

SMILES_CODE	SUBJECT_OF_TEST	pIC50
Cn1sc(Nc2c(F)cccc2Cl)c(C#N)c1=O	SARM1 SAM-TIR (Homo sapiens)	> 6.00

Here is the next item to consider.
Enquiry: # pIC50 lookup, item CS(=O)(=O)CCn1sc(Nc2ccccc2C(F)(F)F)c(C#N)c1=O
Return: > 6.00

====

- SUBJECT_OF_TEST: SARM1 SAM-TIR (Homo sapiens, UniProt Q6SZW1)
- Construct: a fragment of the SARM1 molecule encompassing the SAM and TIR domains; made in house; host or cells: NRK1-HEK293T cells, transiently transfected; the cleared, unpurified lysate was used as the enzyme
- Sequence (Q6SZW1 409-724 limits assumed): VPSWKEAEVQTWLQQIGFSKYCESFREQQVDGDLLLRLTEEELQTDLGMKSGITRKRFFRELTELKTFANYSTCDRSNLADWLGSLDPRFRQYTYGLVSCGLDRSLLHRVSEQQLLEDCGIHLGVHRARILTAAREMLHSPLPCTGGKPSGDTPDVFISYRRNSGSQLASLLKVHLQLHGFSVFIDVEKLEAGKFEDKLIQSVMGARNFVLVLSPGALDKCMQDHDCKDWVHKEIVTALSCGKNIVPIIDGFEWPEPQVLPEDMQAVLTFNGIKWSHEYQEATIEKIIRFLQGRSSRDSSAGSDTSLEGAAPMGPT
- TEST: biochemical
- EXPERIMENTAL_CONDITIONS: SAM-TIR lysate 5 μg/mL, 2 h pre-incubation, 5 μM NAD+, RapidFire MS of NAD+ and ADPR; read-out: SARM1 IC50
Below: a set of entries, each annotated with reported IC50.

MOLECULE	IC50
Cn1sc(Nc2c(Cl)ccc3c2CCCN3)c(C#N)c1=O [Example 77]	< 1000 nM
CC(C)(O)Cn1sc(Nc2ccccc2C(F)(F)F)c(C#N)c1=O [Example 64]	< 1000 nM
CC(O)Cn1sc(Nc2ccccc2C(F)(F)F)c(C#N)c1=O (stereo not shown) [Example 43]	< 1000 nM
Cc1c(Nc2ccccc2C(F)(F)F)s[nH]c1=O [Example 169]	> 5000 nM
N#Cc1c(Nc2ccccc2C(F)(F)F)sn(C[C@@H]2CCOC2)c1=O [Example 60]	< 1000 nM
Cn1sc(Nc2ccccc2Cl)c(C#N)c1=O [Example 32]	< 1000 nM
COCCn1sc(Nc2ccccc2C(C)(C)C)c(C#N)c1=O [Example 98]	< 1000 nM
C[C@H](c1ccccc1)n1sc(Nc2ccccc2C(F)(F)F)c(C#N)c1=O [Example 89]	< 1000 nM

Enquiry: IC50 for COC(=O)c1c(Nc2ccccc2C(F)(F)F)s[nH]c1=O [Example 123] ?
Return: > 5000 nM

====

IC50 for assorted compounds
- SUBJECT_OF_TEST: SARM1 SAM-TIR (Homo sapiens)
- Construct: a fragment of the SARM1 molecule encompassing the SAM and TIR domains; made in house; host or cells: NRK1-HEK293T cells, transiently transfected; the cleared, unpurified lysate was used as the enzyme
- Sequence (Q6SZW1 409-724 limits assumed): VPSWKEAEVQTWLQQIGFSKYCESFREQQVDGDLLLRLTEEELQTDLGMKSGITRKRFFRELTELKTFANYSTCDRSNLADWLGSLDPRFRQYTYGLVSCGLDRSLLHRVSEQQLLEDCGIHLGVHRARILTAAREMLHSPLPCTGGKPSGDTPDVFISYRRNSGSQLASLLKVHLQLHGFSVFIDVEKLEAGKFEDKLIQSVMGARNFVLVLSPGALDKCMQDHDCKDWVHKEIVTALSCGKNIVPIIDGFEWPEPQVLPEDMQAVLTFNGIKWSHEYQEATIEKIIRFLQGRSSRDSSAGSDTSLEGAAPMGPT
- TEST: biochemical
- EXPERIMENTAL_CONDITIONS: SAM-TIR lysate 5 μg/mL, 2 h pre-incubation, 5 μM NAD+, RapidFire MS of NAD+ and ADPR; read-out: SARM1 IC50

Before answering, review these 5 worked examples.
SMILES_CODE	SUBJECT_OF_TEST	IC50
CN(C)C(=O)c1c(Nc2ccccc2C(F)(F)F)s[nH]c1=O	SARM1 SAM-TIR (Homo sapiens)	1000 to 5000 nM
N#Cc1c(O)nsc1NCc1ccccc1	SARM1 SAM-TIR (Homo sapiens)	> 5000 nM
COCCn1sc(Nc2ccccc2C(F)(F)F)c(C#N)c1=O	SARM1 SAM-TIR (Homo sapiens)	< 1000 nM
Cn1sc(Nc2c(Cl)cccc2Cl)c(C(=O)N2CCOCC2)c1=O	SARM1 SAM-TIR (Homo sapiens)	1000 to 5000 nM
C#CCOCCOCCn1sc(Nc2ccccc2C(F)(F)F)c(C#N)c1=O	SARM1 SAM-TIR (Homo sapiens)	< 1000 nM

Enquiry: What value of IC50 has been reported for the following compound? N#Cc1c(O)nsc1Nc1cccc(Cl)c1Cl
Return: < 1000 nM

Enquiry: Try the compound COCCn1sc(Nc2cccc3ncccc23)c(C#N)c1=O
Return: < 1000 nM

====

# key: entry, value: IC50
- SUBJECT_OF_TEST: SARM1 SAM-TIR (Homo sapiens)
- Construct: a fragment of the SARM1 molecule encompassing the SAM and TIR domains; made in house; host or cells: NRK1-HEK293T cells, transiently transfected; the cleared, unpurified lysate was used as the enzyme
- TEST: biochemical
- EXPERIMENTAL_CONDITIONS: SAM-TIR lysate 5 μg/mL, 2 h pre-incubation, 5 μM NAD+, RapidFire MS of NAD+ and ADPR; read-out: SARM1 IC50

SMILES_CODE	IC50
N#Cc1c(Nc2ccccc2C(F)(F)F)sn(C[C@H]2CCOC2)c1=O	< 1000 nM
Cc1ccc2ncccc2c1Nc1sn(C)c(=O)c1C#N	< 1000 nM
CC(C)(O)Cn1sc(Nc2c(Cl)cccc2Cl)c(C#N)c1=O	< 1000 nM

Enquiry: Returns the measured IC50 for the input molecule. Input: N#Cc1c(Nc2ccccc2C(F)(F)F)sn(Cc2ccccn2)c1=O
Return: < 1000 nM

Enquiry: Query COCCn1sc(Nc2cccc(Cl)c2Cl)c(C#N)c1=O next
Return: < 1000 nM

Enquiry: Item: N#Cc1c(Nc2ccccc2C(F)(F)F)sn(Cc2ccccc2)c1=O
Return: < 1000 nM

====

- SUBJECT_OF_TEST: SARM1 SAM-TIR (Homo sapiens)
- Construct: a fragment of the SARM1 molecule encompassing the SAM and TIR domains; made in house; host or cells: NRK1-HEK293T cells, transiently transfected; the cleared, unpurified lysate was used as the enzyme
- TEST: biochemical
- EXPERIMENTAL_CONDITIONS: SAM-TIR lysate 5 μg/mL, 2 h pre-incubation, 5 μM NAD+, RapidFire MS of NAD+ and ADPR; read-out: SARM1 IC50
pIC50: −log10 of the molar value.
MEASURED_PARAMETER: pIC50

// known answers, use as guide
COMPOUND	MEASURED_PARAMETER	REPORTED_MEASUREMENT
COc1cccc(C(F)(F)F)c1Nc1s[nH]c(=O)c1C(=O)N1CCOCC1 [Example 159]	pIC50	< 5.30
Cn1sc(Nc2c(Cl)ccc3ncccc23)c(C#N)c1=O [Example 52]	pIC50	> 6.00
N#Cc1c(N2CCc3ccccc32)s[nH]c1=O [Example 162]	pIC50	< 5.30

Pending compound:
Enquiry: I'd like to know its pIC50. The compound in question is N#Cc1c(Nc2ccccc2C(F)(F)F)sn(CC2CCCO2)c1=O (stereo not shown) [Example 76]
Return: > 6.00

====

- SUBJECT_OF_TEST: SARM1 SAM-TIR (Homo sapiens)
- Construct: a fragment of the SARM1 molecule encompassing the SAM and TIR domains; made in house; host or cells: NRK1-HEK293T cells, transiently transfected; the cleared, unpurified lysate was used as the enzyme
- TEST: biochemical
- EXPERIMENTAL_CONDITIONS: SAM-TIR lysate 5 μg/mL, 2 h pre-incubation, 5 μM NAD+, RapidFire MS of NAD+ and ADPR; read-out: SARM1 IC50
pIC50: −log10 of the molar value.
# reported pIC50; entries follow

COMPOUND	pIC50
Cc1ccc2c(Nc3sn(C)c(=O)c3C#N)cccc2n1	> 6.00
N#Cc1c(Nc2cccc(Br)c2C(F)(F)F)s[nH]c1=O	> 6.00
Cn1sc(Nc2cccc3c2CCCO3)c(C#N)c1=O	> 6.00
N#Cc1c(O)nsc1Nc1ccc(Cl)cc1	5.30 to 6.00
Cn1sc(Nc2c(Cl)cccc2Cl)c(C(=N)N2CCOCC2)c1=O	> 6.00

Enquiry: Quick check: pIC50 on SARM1 SAM-TIR (Homo sapiens), item N#Cc1c(Nc2ccccc2C(F)(F)F)sn(CCC(=O)O)c1=O ?
Return: > 6.00

Enquiry: Try N#Cc1c(Nc2cccc(C3CCCNC3)c2C(F)(F)F)s[nH]c1=O (stereo not drawn) next.
Return: < 5.30

Enquiry: Moving on to the next compound: N#Cc1c(O)nsc1Nc1ccc(C(F)(F)F)cc1
Return: 5.30 to 6.00

Enquiry: Queued: NC(=O)c1c(O)nsc1Nc1cccc(Cl)c1Cl
Return: 5.30 to 6.00
